# assay.target: T1, TNFR1 (Homo sapiens, UniProt P19438)
# T1 chain: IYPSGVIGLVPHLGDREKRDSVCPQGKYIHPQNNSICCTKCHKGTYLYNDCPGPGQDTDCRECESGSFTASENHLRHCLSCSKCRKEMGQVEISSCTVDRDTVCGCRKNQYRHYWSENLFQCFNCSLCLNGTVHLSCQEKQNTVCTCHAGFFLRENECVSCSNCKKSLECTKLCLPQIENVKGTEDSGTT
# run.description: yeast display SC50
Recorded apparent Kd (screen), one value per entry.

binder="L26K (designed binder) MTLQELLREEALRRAEAEAFRYALEKLAEKFPEQKEYLLDLAEEIESQIRSLSGVDVEDVRKFLDKEWAWVKELLAEHPAELAEVEAARAARLAELRAEVEAKVAA" experimental_result="0.718 nM"
binder="L41C (designed binder) MTLQELLREEALRRAEAEAFRYALELLAEKFPEQKEYLLDCAEEIESQIRSLSGVDVEDVRKFLDKEWAWVKELLAEHPAELAEVEAARAARLAELRAEVEAKVAA" experimental_result="2.48 nM"

Field request: apparent Kd (screen) | item: R89G (designed binder) MTLQELLREEALRRAEAEAFRYALELLAEKFPEQKEYLLDLAEEIESQIRSLSGVDVEDVRKFLDKEWAWVKELLAEHPAELAEVEAAGAARLAELRAEVEAKVAA
1.05 nM

Field request: apparent Kd (screen) | item: K66R (designed binder) MTLQELLREEALRRAEAEAFRYALELLAEKFPEQKEYLLDLAEEIESQIRSLSGVDVEDVRKFLDREWAWVKELLAEHPAELAEVEAARAARLAELRAEVEAKVAA
0.869 nM

Data credit: paper PMC12416549
